Examples of binders with documented Relative Release (fraction of positive control o.d.) follow.
Target: soluble HLA-DR1 (HLA-DR alpha truncated after Asn192 with a C-terminal nine amino acid HA epitope tail; HLA-DR1 beta truncated after Lys198), made in Baculovirus-infected insect cells (human)
Test: release ELISA as Table 36 (biotin-hMBP(90-102) left on tethered HLA-DR1); AE peptide 64 uM, with unlabeled hMBP(90-102) 250 uM
Non-standard residues stand in square brackets, D forms with d. Hyp = O=C(O)[C@@H]1C[C@@H](O)CN1
Form field (numeric): enter value without unit.

LRMKLPK (head-to-tail cyclization: the amino terminal amino group is coupled through an amide linkage to the carboxyl terminal group) [AE381] :: -0.19
Ac-LRMKYPK-NH2 [AE235] :: 0.6
YRMKLPKSAK [AE108] :: 0.14
Ac-LRLKLPK-NH2 [AE206] :: -0.29

Reported Relative Release (fraction of positive control o.d.) of Ac-YRMKL[Hyp]KSAK-NH2 (SMILES CSCC[C@H](NC(=O)[C@H](CCCNC(=N)N)NC(=O)[C@H](Cc1ccc(O)cc1)NC(C)=O)C(=O)N[C@@H](CCCCN)C(=O)N[C@@H](CC(C)C)C(=O)N1C[C@H](O)C[C@H]1C(=O)N[C@@H](CCCCN)C(=O)N[C@@H](CO)C(=O)N[C@@H](C)C(=O)N[C@@H](CCCCN)C(N)=O) [AE143] : 0.21
